test.protocol: yeast display, Sf9 membrane polyspecificity reagent, FACS + sequencing; frameworks hold sequencing errors
measurement.name: polyreactivity (PSR sort gate)

These recorded examples may help you get a feel for the data.
Fill in: polyreactivity (PSR sort gate) of "QVQLVESGGGLVQAGGSLRLSCAATGIIFGHYAMGWYRQAPGKERELVAAITSGGRTYYADSVKGRFTISRDNAKNTVYLQMNSLKPEDTAVYYCNVDQGYQGYLRIFDYWGQGTQVTVSS" is ___ low polyreactivity

Next record, please: "QVQLVESGGGLVQAGGSLRLTCAASGSTFRLYAMGWYRQAPGKERELVAGISRTGTSTYYADSVKGRFTISRDNAKTTVFLQMNSLKPEDTAVYYCAASIGGGSYWGQGTQLTVSS" high polyreactivity

Cool, now "QVQLVESGGGLVQAGGSLRLSCAASGRSFSYAMGWYRQAPGKERELVAAISYGGGGTYYADSVKGRFTISRDNAKNTVYLQMNSLKPEDTAVYYCNARQYRPWYPPYGYDYWGQGTQVTVSS" low polyreactivity

Please answer likewise for "QVQLVESGGGLVQAGGSLSLSCAASGFIFTPYTMGWYREAPGKERELVAAITDGSSTNYADSVKGRFTISRDNAKNTVYLQMNSLKPEDTAVYYCAKDWPSAVYGSWAGRYDYWGQGSQVTVSS" low polyreactivity

State the recorded polyreactivity (PSR sort gate) for every item in the following list.
1. QVQLVESGGGLVQEGGSLRLSCAASGFIFKHYAMGWYRQAPGKEMELVAAISGGGSTNYADSVKGRFTISRDNAKNTVYLQMNSLKPEDSAVYYCAARSRSLGYGYWGQGTHVTVSS
2. QVQLVESGGGLVQAGGSLRLRCAASGSIFFFYAMGWYSQARGKEREFVAGITYSGGITYYADSVKGRFTISRDNAKNTDYLQMNSLKPEDTAVYFCDYGGGVYQYGYWGQGTQVTVSS
3. QVQLVESGGGLVQAGGSLRLSCAASGFIFGYYGMGWYRQAPGKERELVAAITDGGSTTYADSVKGRFTISRDNAKNTVYLQMNSLKPEDTAVYYCNAEAGGFDYYGKTYRYGDYWGQGTQVTVSS
4. QVQLVESGGGLVQAGGSLRLSCAASGRTFTPYAMGWYRQAPGKERELVAAISIGGPTNYADSVKGRFTISRDNAKNTVYLQMNSLKPEDTADYYCAADSYYLGRDGFGFYAYTYDYWGQGTEVTVSS

["low polyreactivity", "low polyreactivity", "low polyreactivity", "low polyreactivity"]

---

test.protocol: yeast display, Sf9 membrane polyspecificity reagent, FACS + sequencing; frameworks hold sequencing errors
measurement.name: polyreactivity (PSR sort gate)

Examples with their reported polyreactivity (PSR sort gate) follow.
Sample "QVQLVESGGGLVQAGGSLRLSCAASGSTFRYYTMGWYRQAPGKERELVARISWSGGSTYYAYSVKGRFTISRDNAKYTVYLQMNSLKPEDTAVYYCNAVLFYFQTRDYWGQGTQVTVSS" — what was its polyreactivity (PSR sort gate)? high polyreactivity

Same again, this time with "QVQLVESGGGLVQAGGSLRLSCAASGSTFWWYAMGWYRQAPGKERELVAAISYSGSSTYYADSVKGRFTISRDNAKNTVYLQMNSLKPEDTAVYYCAADIQYYYNFYPGDYWGQGTQVTVSS" low polyreactivity

Let us now turn to "PVQLVESGGGLVQAGASLRLSCAASGNTFIENAKGSYRQAPGKERELVADIDTGGSTYYADSVKGRFTISRDNAKNTVYLQMNRLKPEDTADYYCTAVGLYLYRYKFGYLGKIGPGYDYWGQGTQVTVSS" low polyreactivity

How about "QVQLVESGGGLVQARGSLRLSCAASGRIFKRYTMGWYTQAPGKKRELVATISSGDSTTYADSVKGRFTISRDNAKNTVYLQMNSLKQEDTAVYYCAAVWPGGSRRGDVVALNYWGQGTQVTVSS" ? high polyreactivity

Next:
Entry "QVQLVESGGGLVQAGGSLRLSCAASGRTILVYAMGWYRPAPGKERELVAAISSDGSTNYADSVKGRFTISRDNAMNTVYLQMNSLNPEDTAVYYCARDYYAVSYLYDYWGQGTQVTVSS" has what polyreactivity (PSR sort gate)? low polyreactivity
